Test system: HCT-116 colon
Assay: NCI-60 one-dose screen, 48 h
Settings: 10 µM unless noted
About 83,000 compounds went through this panel and 20% of them were active in at least one assay; those are over-represented in the sample as a whole. Calls of active or inactive are those of the source. Rule for the calls: active = growth percent below 10; inactive = the rest.
Lab note: assign the record to one of active, inactive

Example cases with answers are listed next.
CCCc1cc(=O)n2c(C(=O)Nc3ccc(F)cc3)c(C(=O)Nc3ccc(F)cc3)sc2n1 : inactive
COc1cccc2c1C(=O)c1c(O)c3c(c(O)c1C2=O)C[C@](O)(C(=O)CO)C[C@H]3O[C@@H]1C[C@@H](NC(=O)CCCN(C)C2(c3ccc(F)cc3)CC3CCC2C3)[C@H](O)[C@@H](C)O1 (stereo partly drawn) : active
CN(CCCCCl)P(=O)(OCc1ccc([N+](=O)[O-])o1)C(F)(F)c1ccc(CC(=O)NC[C@@H](O)/C=C\[C@@H](O)[C@H](CO)Cc2ccccc2)cc1 (stereo partly drawn) : inactive
COc1cc2c(cc1OC)C(Sc1ccc(SC)cc1)c1c(nc(N)c(C#N)c1N)O2 (stereo not drawn) : active
CCCCC(=O)OCC1OC(n2cnc3c(=S)nc[nH]c32)C(OC(=O)CCCC)C1OC(=O)CCCC (stereo not drawn) : inactive

// query Per the assay record, what outcome was assigned to COc1ccc(-c2nc3ccc(-c4nc5ccc(N6CCN(c7ccc(F)cc7)CC6)cc5[nH]4)cc3[nH]2)cc1OC ?
// result inactive

// query Hi team, can someone confirm the assay call for C[n+]1ccccc1/C=C/c1ccc2cccc(O)c2n1 ?
// result inactive

// query Kindly provide the recorded test outcome for the following compound: c1ccc(-c2cc3n4c(-c5ccccc5)nn(-c5ccccc5)c4cnc-3n2)cc1
// result inactive

// query Dear colleague, could you share the recorded outcome for COc1cc(/C=C/c2cc(/C=C/c3ccc(O)c(OC)c3)n(-c3c(C)cccc3C)c(=O)n2)ccc1O when you have a moment?
// result active

// query Could you kindly confirm the outcome this assay logged for COC(=O)[C@@H]1CCCN1C(=O)[C@@H]1CCCN1C(=O)[C@H](Cc1ccccc1)NC(=S)Nc1cc(C(F)(F)F)cc(C(F)(F)F)c1 ?
// result inactive

// query I would be grateful if you could indicate the recorded call for C=C1C(=O)O[C@H]2[C@H]1CC/C(C=Nc1ccc(C(F)(F)F)cc1N)=C\CC[C@@]1(C)O[C@@H]21 .
// result active

// query What classification did CCOC(=O)c1csc(NC(=O)COc2cccc(/C=C3\CSc4ccccc4C3=O)c2)n1 end up with in this test?
// result active

// query Hello, I am checking results. What call was entered for Cc1cc(N2CCN(C)CC2)nc(NC2CCCC(Nc3ccnc4cc(Cl)ccc34)C2)n1 (stereo not drawn) ?
// result active

----------
System: TK-10 renal
Assay: NCI-60 one-dose screen, 48 h (100 = growth as untreated, 0 = no growth, -100 = all killed)
Conditions: 10 µM unless noted
About 83,000 compounds went through this panel and 20% of them were active in at least one assay; those are over-represented in the sample as a whole.
measured endpoint: growth (%)
Express your answer in %, writing the number without its unit.

CC(=O)OC[C@H]1O[C@H](OC(C)=O)[C@H](NC(=O)/C=C/CCl)[C@@H](OC(C)=O)[C@@H]1OC(C)=O : 75
Cc1ccc2oc(=O)cc(C3c4ccc([nH]4)C(c4cc(=O)oc5ccc(C)cc45)c4ccc([nH]4)C(c4cc(=O)oc5ccc(C)cc45)c4ccc([nH]4)C(c4cc(=O)oc5ccc(C)cc45)c4ccc3[nH]4)c2c1 (centres undefined) : -22.2
Cc1cc2c3ccccc3ccc2[n+]2ccccc12 : 88.4

// query Which value of growth has been reported for Cc1ccc(NS(=O)(=O)c2ccc(-c3cnc(C4CC4)o3)cc2)cc1C in the records?
// result 44

// query Request the reported growth associated with O=C1Nc2c(ccc(Cl)c2Cl)/C1=C\c1cc(C(F)(F)F)cc(C(F)(F)F)c1
// result 26

// query Would you mind telling me what growth value was observed for N#CN1CCC[C@H]1C(=O)N1CCc2c(-c3[nH]nc4ncccc34)cccc21 ?
// result -15.6

// query Endpoint output: growth of CCOC(=O)n1cc(-c2nonc2-c2cn(C)c3ncccc23)c2ccccc21 . Value?
// result 98.3

// query Which growth value belongs to COc1cc(-c2ccc3c(c2)NC(=O)/C3=C\c2ccc[nH]2)ccc1O ?
// result 35.7

// query growth for C=C1C(=O)O[C@H]2[C@H]1CC/C(C=Nc1ccc(C(F)(F)F)cc1N)=C\CC[C@@]1(C)O[C@@H]21 ?
// result 1.36

// query Look at this compound and give its reported growth. O=C(N(c1ccccc1)c1ccccc1)n1ccc2nc(Cl)nc(Cl)c21
// result 73.7

// query Look up growth: COc1cc2c(cc1-c1c(C)noc1C)ncc1nc(C3CCCCC3)n([C@H](C)COC(F)F)c12
// result 33.2

// query May I ask what growth has been recorded for NNCCc1ccc(NC(=O)CCCc2ccc(/C=C/C(=O)NO)cc2)cc1 ?
// result 76.5

// query What does the record list as growth for NC(N)=N/N=C(/c1ccccc1)c1ccc(F)cc1 ?
// result 50.5

// query Would you kindly share the measured growth for CC1=C(O)C(=O)C(C(C#N)(C#N)C(C#N)C#N)C1 (centres undefined) ?
// result 105

----------
System: COLO 205 colon
Experiment: NCI-60 one-dose screen, 48 h (100 = growth as untreated, 0 = no growth, -100 = all killed)
Details: 10 µM unless noted
This is part of a sample that, as a whole, favours compounds with a hit. Of some 83,000 tested, about 20% had one in any assay.
measured endpoint: growth (%)
Just the number please, in %, no unit attached.

COc1ccc(-c2nc3cc(C(=O)Nc4cc(OC)c(OC)c(OC)c4)ccc3n2C2CCCCC2)cc1 : 110
COC(=O)c1cccc(NC(=O)c2ccc(-c3cccc(N)c3)o2)c1 : 112
NC(N)=N/N=C(/c1ccccc1)c1ccc(F)cc1 : -47
COc1ccc(S(=O)(=O)N2CCCCCC2)cc1NC(=O)c1[nH]c(C)c2c1CCCCC2=O : 26.8
CC(=O)c1cc(C(=O)c2ccc3c(c2)Sc2ccccc2N3)n2ccccc12 : -55.4

// query Recorded growth of Clc1ccc2c(NCCCNc3nc(-n4ccnc4)nc4ccccc34)ccnc2c1 , please.
// result 87.7

// query Query: growth; subject: COc1ccc(-c2cc(=O)c3c(OC)c4ccoc4cc3o2)cc1
// result 102

----------
Tested on: UACC-257 melanoma
Assay: NCI-60 one-dose screen, 48 h
Conditions: 10 µM unless noted
About 83,000 compounds went through this panel and 20% of them were active in at least one assay; those are over-represented in the sample as a whole. The source made the active and inactive calls. How the source made its calls: active means growth percent below 10; inactive means the rest.
Reply using exactly one outcome from active, inactive

Answered cases to consult:
COc1ccc(S(=O)(=O)N2CC3(COC3)C2)cc1NC(=O)c1[nH]c(C)c2c1CCCCC2=O : inactive
COc1ccc2[nH]cc(-c3noc(C(=O)c4cn(C)c5ccc(F)cc45)n3)c2c1 : inactive
CCOC(=O)c1sc2nc(-c3cccc(OC)c3)nc(N3CCOCC3)c2c1C : inactive
COc1ccc(Nc2c3c4c(cccc4[nH]c2=O)C(=O)c2ccccc2-3)cc1 : inactive
O=C1c2cc3c(cc2-c2c1c1ccc(F)cc1c(=O)n2CCCNCCO)OCO3 : active

// query Would you mind telling me which call this test gave CSc1nc(NCc2ccccc2)c(C#N)c(-c2cccc([N+](=O)[O-])c2)n1 ?
// result inactive

// query Answer briefly: the call reported for Cc1ccc2c(c1)C(=O)/C(=C/c1cccc(OCC(=O)c3ccc(Cl)cc3)c1)CS2 in this assay.
// result inactive

// query Recorded test call requested for CN(CCCCCl)P(=O)(OCc1ccc([N+](=O)[O-])o1)C(F)(F)c1ccc(CC(=O)NC[C@@H](O)/C=C\[C@@H](O)[C@H](CO)Cc2ccccc2)cc1 (stereo partly drawn)
// result inactive

// query I'd appreciate the recorded outcome for O=C1/C(=C/c2ccccc2O)N=C2SCCCN12 from this test.
// result inactive

// query Per the records of this test, what outcome belongs to CCNc1ncnc2c1cnn2C1CCCO1 (stereo not drawn) ?
// result inactive

// query Could you kindly confirm the outcome this assay logged for CN1CCN(c2ccc3nc(-c4ccc(OCCCCN5CCN(CCCCN6C(=O)c7cccc8cccc(c78)C6=O)CC5)cc4)[nH]c3c2)CC1 ?
// result inactive

// query Assay outcome for COc1cccc(/C=N/NC(=O)c2ccccc2Nc2ccnc(C(F)(F)F)c2)c1O : what was it?
// result active

----------
System: HS 578T breast
Assay: NCI-60 one-dose screen, 48 h
Conditions: 10 µM unless noted
Compounds without any hit were thinned out: in the full panel of roughly 83,000, 20% have a hit. Active and inactive are the calls of the source. How the source made its calls: active means growth percent below 10; inactive means the rest.
One label from this list, please: active, inactive

Past entries and their recorded results:
COc1ccc(Nc2c3c4c(cccc4[nH]c2=O)C(=O)c2ccccc2-3)cc1 : active
O=C(/C=C/c1cccc([N+](=O)[O-])c1)c1ccc(O)c(CN2CCN(c3cc4c(cc3F)c(=O)c(C(=O)O)cn4C3CC3)CC2)c1 : inactive
Cc1cn2c(/C=C3/C(=O)Nc4c3ccc3ccccc43)c(C(F)(F)F)nc2s1 : inactive

// query Hi, sorry to bother you, what did the test record for Cc1ncc(C(=O)Nc2ccc(CN3CCN(C)CC3)c(C(F)(F)F)c2)cc1C#Cc1cnc2cccnn12 ?
// result active

// query State the result this test recorded for O=C(Cc1ccc(/C=C/C(=O)c2ncc[nH]2)cc1)Nc1ccc(F)cc1 .
// result inactive

// query Which outcome was assigned to O=C1Nc2c(ccc(Cl)c2Cl)/C1=C\c1ccc(C(F)(F)F)cc1 in this test?
// result inactive

// query Which outcome did this test record for the molecule CSc1ccc(-c2ccccc(=O)c2O)cc1 ?
// result inactive

// query GET /call?item= COc1ccc(NC2=C(Sc3nc(C)cc(C)n3)C(=O)N(Cc3ccccc3)C2=O)cc1Cl returns the recorded outcome of this test.
// result active
